SYSTEM TESTED: T1, human CD3e/g (human, UniProt P07766 23-126; P09693 23-116)
T1 construct: Bought soluble protein; also called hCD3e/g; human CD3e/g (Acro CDD-C52W4)
T1 sequence (P07766 23-126, chain 1 of 2): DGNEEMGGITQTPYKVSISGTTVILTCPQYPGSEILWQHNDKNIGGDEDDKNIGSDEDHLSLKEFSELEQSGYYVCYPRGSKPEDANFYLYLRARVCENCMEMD
T1 sequence (P09693 23-116, chain 2 of 2): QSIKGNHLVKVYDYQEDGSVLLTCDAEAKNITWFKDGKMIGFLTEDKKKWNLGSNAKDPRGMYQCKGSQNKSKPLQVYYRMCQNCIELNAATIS
TEST PROTOCOL: SPR (Carterra LSA), mAb on chip
Measured Kd, listed per entry.
Output spec: scalar in nM, unitless text.

Example results:
BINDER: mAb 51 (antibody, V domains shown, VH and VL only) VH: EVQLVESGGGLVQPGGSLRLSCAASGFTLSSYTMNWVRQAPGKGLEWVSYISSSSRTIYYSDSVKGRFSISRDNAKNSLYLQMNSLRDEDTALYYCAREDYYDSSGFDNWGQGTLVTVSS VL: AIRMTQSPSSFSASTGDRVTITCRASQGISSYLAWYQQKPGKAPKLLIYTASTLQSGVPSRFSGSGSGTDFTLTIRSLQSEDFATYYCQQYYSYPRTFGQGTKVEIK
Kd (nM): 171

BINDER: mAb 44 (antibody, V domains shown, VH and VL only) VH: QAQLVQSGSELKKPGASVKVSCKASGYTFTRHAMNWVRQAPGQGLEWMGWINTNTGNPTYAQGFTGRFVFSLDTSVSTAYLKISSLKAEDTAVYYCVREGDYDFWSGFFNFDYWGQGTLVTVSS VL: DIQMTQSPSSLSASVGDRVTITCRASQGIRNDLGWFQQKPGKAPTRLIYAASSLQSGVPSRFSGSGSGAEFTLTISSLQPEDFATYYCLQHNSYPRTFGQGTKVEIK
Kd (nM): 19.1

BINDER: mAb 225 (antibody, V domains shown, VH and VL only) VH: QEQLVESGGGVVQPGGSLRLSCAASGFKFSGYGMHWVRQAPGKGLEWVAIIWYNGRKTYYAESVKGRFTISRDNSKNTLSLQMNRLRVEDTAVYYCTAGQGYNWFDPWGQGTLVTVSS VL: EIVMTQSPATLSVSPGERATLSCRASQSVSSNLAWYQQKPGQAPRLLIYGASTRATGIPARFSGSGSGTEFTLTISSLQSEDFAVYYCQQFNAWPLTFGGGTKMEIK
Kd (nM): 6.2

BINDER: mAb 130 (antibody, V domains shown, VH and VL only) VH: EVQLVESGGGLVKTGGSLRLSCVASGFSFKKAWMNWVRQAPGKGLEWVGRIKRNSDGGATDYAAPVKDRFTLSRDDSKNTLYLQMNSLKTEDTAVYYCTTLDSSSWYVGYYYMDVWGKGTTVTVSS VL: DIHMTQSPSSVSASLGDRVTFTCRASQDINNWLAWYQQRPGKAPKLLIYTASSLQSGVPSRFSGSGSGTDFTLTISSLQPEDFATYYCQQAHSLPITFGQGTRLGIK
Kd (nM): 6.07

Then there is this binder:
Qu. // lookup Kd for mAb 111 (antibody, V domains shown, VH and VL only) VH: EVQLVESGGVLVKTGGSLRLSCVASGFSFKKAWMNWVRQAPGKGLEWVGRIKRNSDGGAADYAAPVKDRFTLSRDDSKNTLYLQMNSLKTEDTAVYYCTTLDSSSWYVGYYYMDVWGKGTTVTVSS VL: DIHMTQSPSSVSASLGDRVTFTCRASQNINNWLAWYQQKPGKAPKLLIYTASSLQSGVPSRFSGSGSGTDFTLTISSLQPDDFATYYCQQAHSLPITFGQGTRLGIK
Ans. 7.44
